test: DSSTox (CPDBAS) Carcinogenic Potency Database Summary SingleCellCall Results; conditions: animal chronic carcinogenicity bioassays, CPDB summary call
Calls of active or inactive are those of the source.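 Rule for the calls: active = a tumor-causing dose value with its tumor site reported for any sex and species group of a rodent or other animal cancer study; inconclusive = only studies judged inadequate by the national testing program; inactive = tested in at least one study, none positive.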
Labels: active, inactive

compound=c1ccc2sc(SNC3CCCCC3)nc2c1 classassignment=inactive
compound=CC(=O)Nc1ccc(-c2ccccc2)cc1O classassignment=inactive
compound="CC[C@]1(O)CC2CN(CCc3c([nH]c4ccccc34)[C@@](C(=O)OC)(c3cc4c(cc3OC)N(C)[C@H]3[C@@](O)(C(=O)OC)[C@H](OC(C)=O)[C@]5(CC)C=CCN6CC[C@]43[C@@H]65)C2)C1 (stereo partly drawn)" classassignment=inactive
compound="CC1=C(C)C(=O)C(C(CCCCCC(=O)O)c2ccccc2)=C(C)C1=O (stereo not drawn)" classassignment=inactive
compound=CCn1cc(C(=O)O)c(=O)c2ccc(C)nc21 classassignment=active
compound=S=P(N1CC1)(N1CC1)N1CC1 classassignment=active
compound=Cc1noc(NS(=O)(=O)c2ccc(N)cc2)c1C classassignment=inactive
compound=C=C(C)[C@H]1CC=C(C)CC1 classassignment=active
compound=O=NN(CCO)C(=O)NCCCl classassignment=active
compound=CC(=O)NNC(C)=O classassignment=inactive
compound="CC(O)CN(CCO)N=O (stereo not drawn)" classassignment=active
compound=O=NN1CCCN(N=O)C1 classassignment=active
compound="ClC1=C(Cl)C2(Cl)C3C(Cl)C=CC3C1(Cl)C2(Cl)Cl (stereo not drawn)" classassignment=active
compound=O=S(=O)([O-])[O-].[Cd+2] classassignment=active
compound="COC(=O)C(c1ccccc1)C1CCCCN1N=O (stereo not drawn)" classassignment=inactive
compound=Cc1ccc(Cc2cnc(NCCSCc3ccc(CN(C)C)o3)[nH]c2=O)cn1 classassignment=active
compound="C=C/C1=C/[C@H](C)[C@](C)(OC(C)=O)C(=O)OCC2=CC[N+]3(C)CC[C@@H](OC1=O)C23[O-] (stereo partly drawn)" classassignment=active
compound="CC1CN(N=O)C(=O)O1 (stereo not drawn)" classassignment=active
compound=CCN(CC)C(=S)SSC(=S)N(CC)CC classassignment=inactive
compound=Cc1ccccc1N classassignment=active
compound=CN(N=O)C(=O)c1c(N(C)N=O)ncn1C classassignment=active
compound=COc1cc2c(c3oc(=O)c4c(c13)CC[C@H]4O)[C@@H]1C=CO[C@H]1O2 classassignment=active
compound=NNc1nc(-c2ccc([N+](=O)[O-])o2)cs1 classassignment=active
compound=CCCN(N)C=O classassignment=active
compound=CCCCN(CCCCO)N=O classassignment=active
compound="CCCCCCCCCCC(C)c1ccc(S(=O)(=O)O)cc1 (stereo not drawn)" classassignment=inactive
compound=COc1ccccc1N classassignment=active
compound=O=c1cc[nH]c(=S)[nH]1 classassignment=active
compound=C=CCc1ccc(OC)cc1 classassignment=active
compound=COC(=O)c1ccc(C(=O)OC)cc1 classassignment=inactive
compound=c1ccc2cc(Nc3ccc(Nc4ccc5ccccc5c4)cc3)ccc2c1 classassignment=inactive
compound=Nc1ccc(N(CCO)CCO)cc1 classassignment=inactive
compound=Cc1ccc2c(-c3cccc(O)c3)nc(=O)n(C(C)C)c2c1 classassignment=inactive
compound=Nc1ccc2c(c1)C(=O)c1ccccc1C2=O classassignment=active
compound=FCC(F)(F)F classassignment=active
compound="C/C=C1/C[C@@H](C)[C@](O)(CO)C(=O)OCC2=CC[N+]3([O-])CC[C@@H](OC1=O)[C@@H]23 (stereo partly drawn)" classassignment=active
compound=CCCN(CCC)S(=O)(=O)c1ccc(C(=O)O)cc1 classassignment=active
compound=CCOC(=O)[C@H](CCc1ccccc1)N[C@@H](C)C(=O)N1Cc2ccccc2C[C@H]1C(=O)O classassignment=inactive
compound=COc1ccc(O)cc1 classassignment=active
compound=S=C=NCCCc1ccccc1 classassignment=inactive
compound=N/C(=N\O)c1ccc([N+](=O)[O-])o1 classassignment=inactive
compound=Oc1cccc2cccnc12 classassignment=inactive
compound=Cc1ccc([N+](=O)[O-])cc1N classassignment=active
compound=C#C[C@]1(OC(C)=O)CC[C@H]2[C@@H]3CCC4=CC(=O)CC[C@@H]4[C@H]3CC[C@@]21C classassignment=active
compound=S=C=Nc1ccccc1 classassignment=inactive
compound=CC(=O)Nc1cccc2c1Cc1ccccc1-2 classassignment=inactive
compound=C=CC(=O)OCC classassignment=active
compound=CC(C)=NNc1ncc(-c2ccc([N+](=O)[O-])o2)s1 classassignment=active
compound=O=c1oc2c(O)c(O)cc3c(=O)oc4c(O)c(O)cc1c4c23 classassignment=inactive
compound="CC1=C[C@H]2O[C@@H]3[C@H](O)[C@@H](O)[C@@](C)(C34CO4)[C@@]2(CO)[C@H](O)C1=O (stereo partly drawn)" classassignment=inactive
compound=CN(N=O)C(=O)NCCC[C@H](N)C(=O)O classassignment=active
compound=CCCCCCCCCCCC[N+](C)(C)[O-] classassignment=inactive
compound="CCCCCCCCS(=O)C(C)Cc1ccc2c(c1)OCO2 (stereo not drawn)" classassignment=active

###

assay: DSSTox (CPDBAS) Carcinogenic Potency Database Summary SingleCellCall Results; details: animal chronic carcinogenicity bioassays, CPDB summary call
Calls of active or inactive are those of the source.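 The calls were made as follows: active = a tumor-causing dose value with its tumor site reported for any sex and species group of a rodent or other animal cancer study; inconclusive = only studies judged inadequate by the national testing program; inactive = tested in at least one study, none positive.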
Labels: active, inactive

compound=CC(C)(c1ccc(O)cc1)c1ccc(O)cc1 classassignment=inactive
compound=CCNc1nc(Cl)nc(NC(C)C)n1 classassignment=active
compound=Nc1ccc(S(=O)(=O)c2ccc(N)cc2)cc1 classassignment=active
compound=Cc1c(N)nc(C)c2c1[nH]c1ccccc12 classassignment=active
compound=CCS(=O)(=O)c1ccc(S(N)(=O)=O)c2ccccc12 classassignment=active
compound="CCC(C(=O)NC(N)=O)c1ccccc1 (stereo not given)" classassignment=inactive
compound=CC(=O)NN classassignment=active
compound=C=CCl classassignment=active
compound=CS(=O)(=O)c1ccc([C@@H](O)[C@@H](CO)NC(=O)C(Cl)Cl)cc1 classassignment=inactive
compound="CCC1CO1 (stereo not given)" classassignment=active
compound=C[C@@H]1C[C@H](C)CN(S(=O)(=O)c2ccc(Cl)c(C(=O)O)c2)C1 classassignment=active
compound=S=C=NCCc1ccccc1 classassignment=inactive
compound=Nc1c(Br)cc(Br)c2c1C(=O)c1ccccc1C2=O classassignment=active
compound=CC(F)(Cl)Cl classassignment=active
compound=Oc1ccc(O)cc1 classassignment=active

###

assay: DSSTox (CPDBAS) Carcinogenic Potency Database Summary SingleCellCall Results; settings: animal chronic carcinogenicity bioassays, CPDB summary call
The source made the active and inactive calls.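 The calls were made as follows: active = a tumor-causing dose value with its tumor site reported for any sex and species group of a rodent or other animal cancer study; inconclusive = only studies judged inadequate by the national testing program; inactive = tested in at least one study, none positive.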
Labels: 1 for active, 0 for inactive

molecule=NC(=O)c1ccncc1 classassignment=0
molecule=O=C1CN(/N=C/c2ccc([N+](=O)[O-])o2)C(=O)N1 classassignment=1
molecule="CC(O)c1ccccc1 (stereo not given)" classassignment=1
molecule=COC(C)(C)C classassignment=1
molecule=CC(C)[N+](=O)[O-] classassignment=0
molecule=NNc1nc(-c2ccc(N)cc2)cs1 classassignment=1
molecule=C#C[C@@]1(O)CC[C@H]2[C@@H]3CCC4=CCCC[C@@H]4[C@H]3CC[C@@]21C classassignment=1
molecule=CC(=O)NNc1ccccc1 classassignment=1
molecule=FC(Cl)(Cl)Cl classassignment=0
molecule=C[C@H](CCC(=O)O)[C@H]1CC[C@H]2[C@@H]3CC[C@@H]4C[C@H](O)CC[C@]4(C)[C@H]3CC[C@]12C classassignment=0
molecule=CCNC(=O)N(CCO)N=O classassignment=1
molecule=O=S(=O)([O-])[O-].O=S(=O)([O-])[O-].[Zr+4] classassignment=0
molecule=O=C(Nc1nc(-c2ccc([N+](=O)[O-])o2)cs1)C(F)(F)F classassignment=1
molecule=O=NN1CCOCC1 classassignment=1
molecule=CCCCC1(COC(=O)CCC(=O)O)C(=O)N(c2ccccc2)N(c2ccccc2)C1=O classassignment=0
molecule=Nc1ccccc1N classassignment=1
molecule=c1ccc2sc(SSc3nc4ccccc4s3)nc2c1 classassignment=0
molecule="CC1CN(N=O)CC(C)N1C(=O)c1ccccc1 (stereo not given)" classassignment=1
molecule=CNC(=O)CSP(=S)(OC)OC classassignment=0
molecule=Oc1cccc(O)c1 classassignment=0
molecule="CC(O)CN(CC(C)O)CC(C)O (stereo not given)" classassignment=0
molecule=S=C=NCc1ccccc1 classassignment=0
molecule=Cc1cc(O)cc(C)c1N(C)C classassignment=0
molecule=Nc1ccc2oc3ccccc3c2c1 classassignment=1
molecule=[N-]=[N+]=CC(=O)OC[C@H](N)C(=O)O classassignment=1
molecule=O.O.O.O.O.O.O=S(=O)([O-])[O-].[Ni+2] classassignment=0
molecule="CC(C)NCC(O)COc1cccc2ccccc12 (stereo not given)" classassignment=0
molecule=O=C(CCl)c1ccccc1 classassignment=0
molecule="CC(O)CCl (stereo not given)" classassignment=0
molecule="C#CC(OC(N)=O)(c1ccccc1)c1ccc(Cl)cc1 (stereo not given)" classassignment=1

###

assay: DSSTox (CPDBAS) Carcinogenic Potency Database Summary SingleCellCall Results; settings: animal chronic carcinogenicity bioassays, CPDB summary call
The source made the active and inactive calls.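 The calls were made as follows: active = a tumor-causing dose value with its tumor site reported for any sex and species group of a rodent or other animal cancer study; inconclusive = only studies judged inadequate by the national testing program; inactive = tested in at least one study, none positive.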
Labels: active, inactive

molecule=CCN(C=O)CC classassignment=inactive
molecule=COC(=O)C1=CCCN(N=O)C1 classassignment=inactive
molecule=c1ccccc1 classassignment=active
molecule=CC(=O)NNc1ccc(CO)cc1 classassignment=active
molecule=ClCOCCl classassignment=active
molecule="C=CC(O)c1ccc(OC)cc1 (centres undefined)" classassignment=active
molecule=Oc1ccc2c(c1)OCO2 classassignment=active
molecule=O=c1cc[nH]c(=O)[nH]1 classassignment=active
